These data points were gathered from patent US20170088602A1.

Biological target: T1, human myostatin (mature, recombinant; R&D Systems) (human, UniProt O14793 267-375)
T1 construct: biotinylated in the mRNA display selection; also called GDF-8; mature myostatin
T1 sequence: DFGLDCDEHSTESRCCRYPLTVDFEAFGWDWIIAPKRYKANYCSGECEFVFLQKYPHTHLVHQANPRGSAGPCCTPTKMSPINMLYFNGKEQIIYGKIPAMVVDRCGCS
Test: SPR format A, 25C
READOUT: Kd (nM)

{"BINDER": "2525_B01 (designed binder) MGVSDVPRDLEVVAATPTSLLISWTLPNFGLINYYRITYGETGGNSPVQEFTVPGRGVTATISGLKPGVDYTITVYAVTITKSTIIIYKPISINYRTEIDKPSQHHHHHH", "Kd, nM": 1.29}
{"BINDER": "2523_G06 (designed binder) MGVSDVPRDLEVVAATPTSLLISWWAPLGLARYYRITYGETGGNSPVQEFTVPGRGSTATISGLKPGVDYTITVYAVTIFRTGMVQYDPISINYRTEIDKPSQHHHHHH", "Kd, nM": 1.47}

(I) 2062_G02 (designed binder, also called ATI-1134) MGVSDVPRDLEVVAATPTSLLISWVSPRGRARYYRITYGETGGNSPVQEFTVPGRGSTATISGLKPGVDYTITVYAVTIYRDGMSHHDPISINYRTEIDKPSQHHHHHH
(II) 2524_H05 (designed binder) MGVSDVPRDLEVVAATPTSLLISWSLPYSGLANYYRITYGETGGNSPVQEFTVPGRGVTATISGLKPGVDYTITVYAVTLTHSNIIRYVPISINYRTEIDKPSQHHHHHH
(III) 2524_E10 (designed binder) MGVSDVPRDLEVVAATPTSLLISWSLPFAGHLNYYRITYGETGGNSPVQEFTVPGRGVTATISGLKPGVDYTITVYAVTLTRSKIIHYMPISINYRTEIDKPSQHHHHHH
(IV) 1979_B06 (designed binder, monoAdnectin with His6 tag; also called ATI-1133) MGVSDVPRDLEVVAATPTSLLISWSLPHAGHVNYYRITYGETGGNSPVQEFTVPGRGVTATISGLKPGVDYTITVYAVTLTKSQMIHYMPISINYRTEIDKPSQHHHHHH
(V) 2522_C09 (designed binder) MGVSDVPRDLEVVAATPTSLLISWEVPRGLARYYRITYGETGGNSPVQEFTVLGRGSTATISGLKPGVDYTITVYAVTVYRDGPLLLAPISINYRTEIDKPSQHHHHHH
Hi! Can you put these in order of Kd, lowest number first? Write out the labels following the order that was asked for.
V, II, III, IV, I
(V: 0.51 nM, II: 0.88 nM, III: 1.34 nM, IV: 29 nM, I: 48.8 nM)

(1) 2525_F07 (designed binder) MGVSDVPRDLEVVAATPTSLLISWSLPYAAHMNYYRITYGETGGNSPVQEFTVPGRGVTATISGLKPGVDYTITVYAVTLTRSQVIHYMPISINYRTEIDKPSQHHHHHH
(2) 2525_D02 (designed binder) MGVSDVPRDLEVVAATPTSLLISWTLPHAGRAHYYRITYGETGGNSPVQEFTVPGRGVTATISGLKPGVDYTITVYAVTVTTTSVILYKPISINYRTEIDKPSQHHHHHH
Hi! Which is lower in terms of Kd, the first one 1 or the second one 2 ? Could you answer with the label of the item you picked?
2
(2: 0.24 nM, 1: 0.79 nM)
